molecular target: Glutamate [NMDA] receptor; assay: Inhibition of [3H]DCKA binding to N-methyl-D-aspartate glutamate receptor
property: IC50 (nM)

Answered cases to consult:
structure-notation: O=Nc1c(O)nc2c(F)c(F)c(F)c(F)c2c1O
property: IC50
quantity-unit: nM
experimental-value: 3300
--
structure-notation: O=Nc1c(O)nc2cccc(Cl)c2c1O
property: IC50
quantity-unit: nM
experimental-value: 4400
--
structure-notation: CCc1cc2nc(O)c(O)nc2cc1Cl
property: IC50
quantity-unit: nM
experimental-value: 1400
--
structure-notation: COc1cc2nc(O)c(O)nc2cc1Br
property: IC50
quantity-unit: nM
experimental-value: 1000
--
structure-notation: COc1c(Cl)cc2nc(O)c(O)nc2c1[N+](=O)[O-]
property: IC50
quantity-unit: nM
experimental-value: 150

a = Oc1nc2ncccc2c(O)c1-c1cccc(Oc2ccccc2)c1
b = Oc1nc2cc(F)c(Cl)c(F)c2nc1O
In: # return whichever of a and b has the smaller IC50 Write down the label attached to your selection.
Out: b

###

target: Glutamate [NMDA] receptor; assay: Inhibition of [3H]DCKA binding to N-methyl-D-aspartate glutamate receptor
pIC50: −log10 of the molar value.
property: pIC50

a = Oc1nc2cc(Cl)c(Cl)cc2nc1O [2,3-DIHYDROXY-6,7-DICHLOROQUINOXALINE]
b = O=[N+]([O-])c1c(O)nc2ccccc2c1O
c = Oc1nc2cc(Cl)cnc2c(O)c1-c1cccc(Cl)c1
d = O=[N+]([O-])c1c(O)nc2cc(Cl)cc(Cl)c2c1O
In: List these items ordered by pIC50, big to small. # output: labels, in the requested order
Out: a, d, c, b
(a: 6.89, d: 6.66, c: 5.52, b: 4.47)

1 = N#Cc1cc([N+](=O)[O-])c2nc(O)c(O)nc2c1
2 = COc1cc2nc(O)c(O)nc2cc1OC
3 = CCc1cc2nc(O)c(O)nc2c([N+](=O)[O-])c1Cl
4 = O=c1[nH]c2cc(Cl)c(Cl)c([N+](=O)[O-])c2[nH]c1=O
In: Place the items in sequence of falling pIC50. # output: labels, in the requested order
Out: 4, 3, 1, 2

###

target: Glutamate [NMDA] receptor; assay: Inhibition of [3H]DCKA binding to N-methyl-D-aspartate glutamate receptor
pIC50: −log10 of the molar value.
property: pIC50

P = Oc1nc2cc3c(cc2nc1O)CCC3
Q = O=Nc1c(O)nc2ccc(Cl)c(Cl)c2c1O
R = CCc1cc2nc(O)c(O)nc2c([N+](=O)[O-])c1Br
S = Oc1nc2cc(Cl)cnc2c(O)c1-c1ccccc1
In: List these items ordered by pIC50, big to small. # output: labels, in the requested order
Out: R, Q, S, P
(R: 7.09, Q: 6.77, S: 5.48, P: 4.82)

###

biological target: Glutamate [NMDA] receptor; experiment: Inhibition of [3H]DCKA binding to N-methyl-D-aspartate glutamate receptor
pIC50: −log10 of the molar value.
property: pIC50

I = Oc1nc2ccc(Cl)cc2nc1O
II = Cc1c(F)cc2nc(O)c(O)nc2c1[N+](=O)[O-]
In: Which shows the larger pIC50 value: I or II ? Write down the label attached to your selection.
Out: II

I = CCc1c(Cl)cc2nc(O)c(O)nc2c1[N+](=O)[O-]
II = Cc1cccc(-c2c(O)nc3cc(Cl)cnc3c2O)c1
In: # return whichever of I and II has the smaller pIC50 Write down the label attached to your selection.
Out: II
(II: 5.74, I: 6.89)

###

target: Glutamate [NMDA] receptor; assay: Inhibition of [3H]DCKA binding to N-methyl-D-aspartate glutamate receptor
pIC50: −log10 of the molar value.
property: pIC50

Answered cases to consult:
structure-notation: CCc1cc2nc(O)c(O)nc2cc1CC
target: Glutamate [NMDA] receptor
pIC50: 5.74

structure-notation: O=Nc1c(O)nc2c(F)c(Cl)c(F)cc2c1O
target: Glutamate [NMDA] receptor
pIC50: 6.04

structure-notation: O=[N+]([O-])c1cccc(-c2c(O)nc3cc(Cl)cnc3c2O)c1
target: Glutamate [NMDA] receptor
pIC50: 5.13

a = CCc1cc2nc(O)c(O)nc2c([N+](=O)[O-])c1CC
b = Cc1cc2nc(O)c(O)nc2cc1Cl
In: Which shows the larger pIC50 value: a or b ? Write down the label attached to your selection.
Out: a

###

target: Glutamate [NMDA] receptor; test: Compound was tested for inhibition of [3H]DCKA binding to N-methyl-D-aspartate glutamate receptor; format: protein-complex assay; parameters: unit not given here
property: Log 1/IC50

structure-notation: Oc1nc2cc(Cl)cnc2c(O)c1-c1ccccc1Cl
Log 1/IC50: -1.38

structure-notation: Oc1nc2ncc(Cl)cc2c(O)c1-c1ccccc1
Log 1/IC50: -2

structure-notation: COc1c(Br)cc2nc(O)c(O)nc2c1[N+](=O)[O-]
Log 1/IC50: 1.19

structure-notation: O=c1[nH]c2cc3c(c([N+](=O)[O-])c2[nH]c1=O)CCC3
Log 1/IC50: -0.49

structure-notation: Oc1nc2ccc(Cl)cc2nc1O
Log 1/IC50: -0.25

structure-notation: O=Nc1c(O)nc2cccc(Cl)c2c1O
Log 1/IC50: -0.64

structure-notation: O=Nc1c(O)nc2c(Cl)cccc2c1O
Log 1/IC50: -2

structure-notation: O=[N+]([O-])c1c(O)nc2c(Cl)cccc2c1O
Log 1/IC50: -2

structure-notation: Oc1nc2ccccc2nc1O
Log 1/IC50: -0.99

structure-notation: CCc1cc2nc(O)c(O)nc2cc1Cl
Log 1/IC50: -0.15

P = Cc1cc(C)c2c(O)c([N+](=O)[O-])c(O)nc2c1
Q = CCc1c(Cl)cc2nc(O)c(O)nc2c1[N+](=O)[O-]
In: # return whichever of P and Q has the smaller Log 1/IC50 Write down the label attached to your selection.
Out: P

###

target: Glutamate [NMDA] receptor; assay: Compound was tested for inhibition of [3H]DCKA binding to N-methyl-D-aspartate glutamate receptor; assay type: protein-complex assay; parameters: unit not given here
property: Log 1/IC50

Answered cases to consult:
structure-notation: Oc1nc2cc(Cl)cnc2c(O)c1Oc1cccc(-c2ccccc2)c1
Log 1/IC50: 1.64
--
structure-notation: O=[N+]([O-])c1c(O)nc2cc(Cl)c(Cl)cc2c1O
Log 1/IC50: 0.4
--
structure-notation: Oc1nc2c(F)c(F)c(F)c(F)c2nc1O
Log 1/IC50: 0.14
--
structure-notation: COc1cc2nc(O)c(O)nc2c(OC(C)=O)c1OC
Log 1/IC50: -1.72
--
structure-notation: Oc1nc2cc3c(cc2nc1O)CCC3
Log 1/IC50: -1.17

P = Oc1nc2ncccc2c(O)c1-c1cccc(Oc2ccccc2)c1
Q = COc1cc2nc(O)c(O)nc2cc1Br
In: # return whichever of P and Q has the smaller Log 1/IC50 Write down the label attached to your selection.
Out: P
(P: -1.49, Q: 0)

###

target: Glutamate [NMDA] receptor; assay: Compound was tested for inhibition of [3H]DCKA binding to N-methyl-D-aspartate glutamate receptor; type: protein-complex assay; parameters: unit not given here
property: Log 1/IC50

Answered cases to consult:
molecule: Cc1c(F)cc2nc(O)c(O)nc2c1[N+](=O)[O-]
target: Glutamate [NMDA] receptor
property: Log 1/IC50
experimental-value: 1.02
//
molecule: O=[N+]([O-])c1c(O)nc2ccc(Cl)cc2c1O
target: Glutamate [NMDA] receptor
property: Log 1/IC50
experimental-value: -2
//
molecule: COc1c(Cl)cc2nc(O)c(O)nc2c1[N+](=O)[O-]
target: Glutamate [NMDA] receptor
property: Log 1/IC50
experimental-value: 0.82
//
molecule: O=Nc1c(O)nc2c(F)c(F)c(F)c(F)c2c1O
target: Glutamate [NMDA] receptor
property: Log 1/IC50
experimental-value: -0.52
//
molecule: O=[N+]([O-])c1c(O)nc2cc(Cl)ccc2c1O
target: Glutamate [NMDA] receptor
property: Log 1/IC50
experimental-value: -0.18
//
molecule: O=Nc1c(O)nc2ccc(Cl)cc2c1O
target: Glutamate [NMDA] receptor
property: Log 1/IC50
experimental-value: -0.53
//
molecule: Oc1nc2cc(Cl)c(Cl)cc2nc1O [2,3-DIHYDROXY-6,7-DICHLOROQUINOXALINE]
target: Glutamate [NMDA] receptor
property: Log 1/IC50
experimental-value: 0.89
//
molecule: Cc1cc2nc(O)c(O)nc2c([N+](=O)[O-])c1C
target: Glutamate [NMDA] receptor
property: Log 1/IC50
experimental-value: 1.54
//
molecule: Cc1c(C#N)cc2nc(O)c(O)nc2c1[N+](=O)[O-]
target: Glutamate [NMDA] receptor
property: Log 1/IC50
experimental-value: 1.14
//
molecule: O=[N+]([O-])c1c(O)nc2c(F)c(Cl)c(F)cc2c1O
target: Glutamate [NMDA] receptor
property: Log 1/IC50
experimental-value: -1.6

a = Oc1nc2cc(Cl)cnc2c(O)c1-c1cccc(Oc2ccccc2)c1
b = O=[N+]([O-])c1c(O)nc2ccccc2c1O
c = Oc1nc2cc(Cl)c(Cl)c(Cl)c2nc1O
d = Oc1nc2cc(Cl)cnc2c(O)c1-c1ccsc1
e = O=Nc1c(O)nc2c(F)c(Cl)c(F)cc2c1O
In: Order the entries by their reported Log 1/IC50, beginning at the minimum. # output: labels, in the requested order
Out: b, d, e, a, c
(b: -1.53, d: -0.63, e: 0.04, a: 0.96, c: 1.53)

I = COc1cc2nc(O)c(O)nc2c(O)c1OC
II = CCc1cc2nc(O)c(O)nc2c([N+](=O)[O-])c1Cl
III = CCOc1c(F)cc2nc(O)c(O)nc2c1[N+](=O)[O-]
IV = Oc1cc2nc(O)c(O)nc2cc1O
V = CCc1cc2nc(O)c(O)nc2c([N+](=O)[O-])c1CC
In: Order the entries by their reported Log 1/IC50, beginning at the minimum. # output: labels, in the requested order
Out: IV, I, III, V, II
(IV: -2, I: -1.23, III: -0.56, V: 0.8, II: 1.54)

1 = O=[N+]([O-])c1cccc(-c2c(O)nc3cc(Cl)cnc3c2O)c1
2 = Oc1nc2ncc(Cl)cc2c(O)c1-c1cccc(Oc2ccccc2)c1
In: Which shows the larger Log 1/IC50 value: 1 or 2 ? Write down the label attached to your selection.
Out: 1
(1: -0.87, 2: -1.28)
